ASSAY COMMENT: AUC(0 to 7 hrs) in Sprague-Dawley rat cerebrospinal fluid at 10 mg/kg, sc by LC-MS/MS analysis
Assay type: ADME, organism-based
Design: time < 7 hr, dose 10 mg/kg, route subcutaneous
RECORDED METRIC: AUC(0-t) at 7 h (ng·h/mL)
// units = ng·h/mL; emit number, no label

Suppose we examine the molecule CN(C)CCCC1(c2ccc(F)cc2)OCc2cc(C#N)ccc21 (racemic) ; what AUC(0-t) at 7 h value has been reported?
401

---

ASSAY COMMENT: AUC(0 to infinity) in Sprague-Dawley rat cerebrospinal fluid at 0.2 mg/kg, sc by LC-MS/MS analysis
Type: ADME, organism-based
Parameters: time infinity, dose 0.2 mg/kg, route subcutaneous
RECORDED METRIC: AUC(0-inf) (ng·h/mL)
// units = ng·h/mL; emit number, no label

Suppose we examine the molecule CCCC(C)C1(CC)C(=O)NC(=S)NC1=O (stereo unspecified) ; what AUC(0-inf) value has been reported?
16.6

---

ASSAY COMMENT: Ratio of unbound drug level in brain to plasma in Sprague-Dawley rat at 1 mg/kg, sc by LC-MS/MS analysis
Assay type: ADME, organism-based
Design: dose 1 mg/kg, route subcutaneous
Entries annotated with measured Kp uu
// no unit, no text: just the number

[[record]]
chemical_string = "CC(C)S(=O)(=O)N[C@H]1CCOC[C@@H]1c1ccc(-c2ccc(C#N)s2)cc1"
recorded_result = 0.44


// below: Kp uu requested for another compound
Suppose we examine the compound `Cc1nc2n(c(=O)c1CCN1CCC(c3noc4cc(F)ccc34)CC1)CCCC2` ; what Kp uu value has been reported?
0.23

---

ASSAY COMMENT: AUC(0 to infinity) in Sprague-Dawley rat plasma treated with risperidone at 1 mg/kg, sc by LC-MS/MS analysis
Assay type: ADME, organism-based
Design: time infinity, dose 1 mg/kg, route subcutaneous
RECORDED METRIC: AUC(0-inf) (ng·h/mL)
// units = ng·h/mL; emit number, no label

Suppose we examine the compound Cc1nc2n(c(=O)c1CCN1CCC(c3noc4cc(F)ccc34)CC1)CCCC2O (stereo unspecified) ; what AUC(0-inf) value has been reported?
342

---

ASSAY COMMENT: Unbound fraction in Beagle dog brain at 0.1 mg/kg, sc by LC-MS/MS analysis
RECORDED METRIC: fraction unbound

Suppose we examine the molecule Cc1nc2n(c(=O)c1CCN1CCC(c3noc4cc(F)ccc34)CC1)CCCC2 [RISPERIDONE] ; what fraction unbound value has been reported?
0.0809

---

ASSAY COMMENT: AUC(0 to infinity) in Sprague-Dawley rat plasma at 0.2 mg/kg, sc by LC-MS/MS analysis
Format: ADME, organism-based
Set-up: dose 0.2 mg/kg, route subcutaneous, time infinity
RECORDED METRIC: AUC(0-inf)

Suppose we examine the molecule CCCC(C)C1(CC)C(=O)NC(=S)NC1=O (stereo unspecified) ; what AUC(0-inf) value has been reported?
244 ng·h/mL

---

ASSAY COMMENT: AUC(0 to 7 hrs) in Sprague-Dawley rat brain at 10 mg/kg, sc by LC-MS/MS analysis
Format: ADME, organism-based
Parameters: time < 7 hr, dose 10 mg/kg, route subcutaneous
RECORDED METRIC: AUC(0-t) at 7 h (ng·h/mL)
// units = ng·h/mL; emit number, no label

Suppose we examine the molecule CN(C)CCCC1(c2ccc(F)cc2)OCc2cc(C#N)ccc21 (racemic) [CITALOPRAM] ; what AUC(0-t) at 7 h value has been reported?
12500

---

ASSAY COMMENT: AUC(0 to 2 hrs) in Beagle dog cerebrospinal fluid at 0.1 mg/kg, sc by LC-MS/MS analysis
Format: ADME, organism-based, Canis lupus familiaris
Parameters: time < 2 hr, dose 0.1 mg/kg, route subcutaneous
RECORDED METRIC: AUC(0-t) at 2 h (ng·h/mL)
// units = ng·h/mL; emit number, no label

Suppose we examine the compound `Cc1nc2n(c(=O)c1CCN1CCC(c3noc4cc(F)ccc34)CC1)CCCC2` ; what AUC(0-t) at 2 h value has been reported?
3.48

src = ChEMBL document CHEMBL3526130
